Tested System: T1, human serum albumin (human, UniProt P02768 25-609)
T1 construct: Negative control antigen of the screening ELISA; also called HSA
T1 sequence (P02768 25-609 limits assumed): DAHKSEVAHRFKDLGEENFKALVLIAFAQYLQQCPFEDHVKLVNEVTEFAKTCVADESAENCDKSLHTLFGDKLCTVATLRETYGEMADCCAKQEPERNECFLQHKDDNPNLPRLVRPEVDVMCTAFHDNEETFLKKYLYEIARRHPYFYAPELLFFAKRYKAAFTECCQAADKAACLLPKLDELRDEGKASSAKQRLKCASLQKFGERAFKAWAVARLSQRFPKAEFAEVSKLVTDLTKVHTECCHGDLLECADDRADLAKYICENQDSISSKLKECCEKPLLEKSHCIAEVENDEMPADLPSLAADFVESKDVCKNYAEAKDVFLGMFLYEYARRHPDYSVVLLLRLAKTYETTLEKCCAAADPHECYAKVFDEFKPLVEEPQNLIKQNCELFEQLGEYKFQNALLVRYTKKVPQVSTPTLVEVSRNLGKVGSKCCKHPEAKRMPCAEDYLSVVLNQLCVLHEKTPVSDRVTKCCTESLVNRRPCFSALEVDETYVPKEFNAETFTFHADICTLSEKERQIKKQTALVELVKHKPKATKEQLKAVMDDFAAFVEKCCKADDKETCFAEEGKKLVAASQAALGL
Protocol: ELISA, bacterial lysate on plate-bound antigen, luminescence
Below, each entry is listed with its recorded ELISA HSA (RLU).
Number in RLU, nothing else.

ISOP120HR5P1B5 (designed binder, not shown: small tags and cut ends, FN3 domain (Centyrin); tested as E. coli lysate) LPAPKNLVVSRVTEDSARLSWTAPDAAFDSFIIRYIEEGYYGEAIVLTVPGSERSYDLTGLKPGTEYHVGIEGVKGGYYSYPLSAIFTT | 240
ISOP120AR5P1H3 (designed binder, not shown: small tags and cut ends, FN3 domain (Centyrin); tested as E. coli lysate) LPAPKNLVVSRVTEDSARLSWKWISHEPLEFDSFLIQYQESEKVGEAIVLTVPGSERSYDLTGLKPGTEYTVSIYGVGRHYTVYDSNPLSAIFTT | 480
ISOP120ER5P1H6 (designed binder, not shown: small tags and cut ends, FN3 domain (Centyrin); tested as E. coli lysate) LPAPKNLVVSRVTEDSARLSWTAPDAAFDSFSIYYGEWHALGEAIVLTVPGSERSYDLTGLKPGTEYVVTIYGVKGGTYSLPLSAIFTT | 480

Fill in the blank: the reported ELISA HSA (RLU) of ISOP120AR5P1G8 (designed binder, not shown: small tags and cut ends, FN3 domain (Centyrin); tested as E. coli lysate) LPAPKNLVVSRVTEDSARLSWHATFGDPFDSFLIQYQESEKVGEAIVLTVPGSERSYDLTGLKPGTEYTVSIYGVGRHYTVYDSNPLSAIFTT is ____.
320
